- study-target: T1, GST-TIP1 PDZ domain 1 (Table 9 insert) (Homo sapiens (Human)), O14907
- T1 chain: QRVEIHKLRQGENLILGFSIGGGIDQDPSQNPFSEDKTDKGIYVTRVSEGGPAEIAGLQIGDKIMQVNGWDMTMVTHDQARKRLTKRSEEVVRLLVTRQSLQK
- protocol-details: G' assay; note: key of the grades not given here
binders and their reported Classification

[
  {
    "binder": "GPDGIITVNDFTQNPRVQLE (modifications not checked) [ropporin]",
    "Classification (A450 class)": 1
  },
  {
    "binder": "ARHRVTSYTSSSVNVSSNL (modifications not checked) [IL-8RA]",
    "Classification (A450 class)": 1
  },
  {
    "binder": "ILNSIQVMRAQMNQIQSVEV (modifications not checked) [ephrin B2]",
    "Classification (A450 class)": 2
  },
  {
    "binder": "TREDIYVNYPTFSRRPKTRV (modifications not checked) [DNAM-1]",
    "Classification (A450 class)": 1
  },
  {
    "binder": "DSDPENEPFDEDQHTQITKV (modifications not checked) [PTEN]",
    "Classification (A450 class)": 2
  },
  {
    "binder": "AWDDSARAAGGQGLHVTAL (modifications not checked) [LPAP]",
    "Classification (A450 class)": 5
  }
]
